# Target entity: intracellular CK2α (Homo sapiens, UniProt P19784)
# Sequence (P19784 whole entry): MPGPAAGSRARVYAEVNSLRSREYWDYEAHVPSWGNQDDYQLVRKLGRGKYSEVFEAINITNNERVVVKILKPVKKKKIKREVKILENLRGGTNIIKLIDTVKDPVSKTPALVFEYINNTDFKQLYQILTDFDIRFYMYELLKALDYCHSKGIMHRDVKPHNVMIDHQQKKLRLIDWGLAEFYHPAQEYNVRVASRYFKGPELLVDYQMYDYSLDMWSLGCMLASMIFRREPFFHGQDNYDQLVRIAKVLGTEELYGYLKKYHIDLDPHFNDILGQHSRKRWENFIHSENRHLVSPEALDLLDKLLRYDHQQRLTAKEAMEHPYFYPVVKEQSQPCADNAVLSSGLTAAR
# Procedure text: Cell-based NanoBRET assay for inhibitor binding to intracellular CK2α
# Experimental parameters: HCT116 cells transiently transfected with CSNK2A2-NanoLuc fusion vector; Tracer K-5; 2 h; read-out: Assay 3: NanoBRET ™ assay for binding to intracellular CK2α
Quantity measured: IC50 (µM)

Smiles code: C[C@@H](CCCOCCNc1cc(-c2cnnc(O)c2)cc2[nH]ncc12)NCc1cc(CC#N)cc(OC(F)(F)F)c1
IC50 (µM): 0.0149

a = COC(=O)c1cc(NCCOCCCCNCc2cc3cc(C(F)(F)F)ccc3[nH]2)c2cn[nH]c2c1
b = FC(F)(F)Oc1ccc(CNCCc2nnc(CCNc3cc(-n4cnnc4)cc4[nH]ncc34)[nH]2)cc1Cl
Task: Hey, which is lower on measured IC50, a or b ? Your answer should be the label of the entry you select.
Result: b

A = O=C(CCNCc1ccc(OC(F)(F)F)c(Cl)c1)NCCCNc1cc(-c2ccncc2F)cc2[nH]ncc12
B = Cc1cnccc1-c1cc(NCCCNC(=O)CCNCc2ccc(OC(F)(F)F)c(Cl)c2)c2cn[nH]c2c1
Task: Pick one: A or B . Which has the bigger IC50 number? Your answer should be the label of the entry you select.
Result: B

a = N#CCc1cc(CNCCCCOC2CN(c3cc(-c4ccnnc4)cc4[nH]ncc34)C2)cc(OC(F)(F)F)c1
b = O=C(CCNCc1ccc(-c2ccccc2)c(Cl)c1)NCCCNc1cc(CO)cc2[nH]ncc12
c = FC(F)(F)Oc1ccc(CNCCCCOC2CN(c3cc(-c4ccnnc4)cc4[nH]nnc34)C2)cc1Cl
d = O=C(CCNCc1ccc(-c2ccccc2)c(Cl)c1)NCCCNc1cc(-c2cn[nH]c2)cc2[nH]ncc12
e = Fc1cc(CNCCCCOC2CN(c3cc(-c4ccnnc4)cc4[nH]ncc34)C2)ccc1OC(F)(F)F
Task: Arrange these 5 compounds in increasing order of IC50. Put the labels in the requested order and list them out.
Result: d, a, e, b, c

a = N#CCc1cc(CNCCCCOC2CN(c3cc(-n4cnnc4)cc4[nH]ncc34)C2)cc(C(F)(F)F)c1
b = c1cc2[nH]c(CNCCCCOC3CN(c4cc(-n5cnnc5)cc5[nH]ncc45)C3)cc2cc1OC1CCC1
Task: Hey, which is lower on measured IC50, a or b ? Your answer should be the label of the entry you select.
Result: b

====

# Target entity: CLK2 (Homo sapiens)
# Sequence (P49760 whole entry): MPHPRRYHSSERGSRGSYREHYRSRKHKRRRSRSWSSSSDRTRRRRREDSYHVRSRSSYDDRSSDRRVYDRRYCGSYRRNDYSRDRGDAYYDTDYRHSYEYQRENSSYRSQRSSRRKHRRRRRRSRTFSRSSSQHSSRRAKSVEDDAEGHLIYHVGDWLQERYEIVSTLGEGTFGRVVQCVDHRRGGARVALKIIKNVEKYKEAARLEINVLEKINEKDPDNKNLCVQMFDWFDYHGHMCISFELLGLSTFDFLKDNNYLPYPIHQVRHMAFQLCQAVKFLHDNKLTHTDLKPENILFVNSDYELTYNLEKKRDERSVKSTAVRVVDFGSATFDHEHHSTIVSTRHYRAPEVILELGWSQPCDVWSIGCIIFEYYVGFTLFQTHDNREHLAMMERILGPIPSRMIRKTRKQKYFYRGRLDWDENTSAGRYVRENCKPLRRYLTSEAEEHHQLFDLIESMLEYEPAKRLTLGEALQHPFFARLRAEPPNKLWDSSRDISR
Quantity measured: IC50 (nM)

Here are 4 compounds together with their reported answers.
Smiles code: O=C(CCNCc1ccc(OC(F)(F)F)c(Cl)c1)NCCCOc1cc(-n2cnnc2)cc2[nH]ncc12
Target entity: CLK2 (Homo sapiens)
IC50, nM: 574
--
Smiles code: C[C@@H](CCCOCCNc1cc(-c2cnnc(O)c2)cc2[nH]ncc12)NCc1cc(CO)cc(OC(F)(F)F)c1
Target entity: CLK2 (Homo sapiens)
IC50, nM: 355
--
Smiles code: FC(F)(F)c1ccc2[nH]c(CNCCCCOCCNc3cc(-c4ccnnc4)cc4[nH]nnc34)cc2c1
Target entity: CLK2 (Homo sapiens)
IC50, nM: 22900
--
Smiles code: c1cc2[nH]c(CNCCCCOC3CN(c4cc(-c5cnoc5)cc5[nH]ncc45)C3)cc2cc1OC1CCC1
Target entity: CLK2 (Homo sapiens)
IC50, nM: 617

I = FC(F)(F)Oc1ccc(CNCCCNCCCOc2cc(-n3cnnc3)cc3[nH]ncc23)cc1Cl
II = CN(CCCCNCc1ccc(OC(F)(F)F)c(Cl)c1)CCNc1cc(-n2cnnc2)cc2[nH]ncc12
Task: Hey, which is lower on measured IC50, I or II ? Your answer should be the label of the entry you select.
Result: II
(II: 431 nM, I: 4160 nM)

Where do the numbers come from? From patent US20260085062A1.
